Biological target: Peregrin (Homo sapiens)
Details: Compound concentration 20.0 uM, Protein concentration 2.0 uM, Result type QC Liability
Decision: ΔTm beneath -1 °C gives Yes; ΔTm meeting or exceeding -1 °C gives No.

STRUCTURE NOTATION | ASSIGNED CATEGORY
CCn1c(=O)c2c(C)c(C(=O)N3CCC(O)CC3)sc2n(CCC(F)(F)F)c1=O | Yes
CCn1c(-c2nonc2N)nc2ccccc21 | Yes
N#Cc1ccc(COc2ccc(Br)cc2CNCCO)cn1 | No
Clc1ccc(-c2nc3sccn3c2/C=N/OCc2ccc(Cl)c(Cl)c2)cc1 | No
O=C(O)C[C@H]1CCn2c1c(Sc1ccc(Cl)cc1)c1ccc(F)cc12 | Yes
